Tested on: SNB-19
Procedure details: NCI tumour cell line growth inhibition, 48 h
Active and inactive are the calls of the source. Rule as the data show it: active = GI50 up to about 1.1 µM and inactive = higher.
Experimental endpoint: GI50

Compound	Experimental endpoint	Value reported
C/C(=C\CNc1ncnc2c1ncn2CCC(=O)OC(C)(C)C)CO	GI50	> 100 µM (inactive)
NN/C(=N\S(=O)(=O)c1ccc(-c2ccccn2)s1)Nc1ccc(Cl)cc1	GI50	42.1 µM (inactive)
CCN(CCCl)CCCCCNc1c2ccccc2nc2ccc(OC)cc12	GI50	1.16 µM (inactive)
Cc1ccc(C(=O)/C=C2\Nc3ccccc3S\C2=N\CS(=O)(=O)c2ccc(C)cc2)cc1	GI50	> 10 µM (inactive)
COc1ccc(-c2cc3[nH]nc(N)c3c(=O)o2)cc1	GI50	> 100 µM (inactive)

Continue with the next compound.
# input compound: COc1ccc(C[C@H]2COC(=O)[C@@H]2Cc2ccccc2)cc1OC ; wanted: its GI50
> 100 µM (inactive)
